- Test system: Strep. faecalis HH 34358
Exercise: for every item that follows, state its recorded MIC.

Given the entry O=C(O)C1=C(CSc2n[nH]c(=O)[nH]2)CSC2C(NC(=O)C(O)c3ccccc3)C(=O)N12 (stereo not drawn) , report its measured MIC.
50 µg/mL

Note, next up: NC(C(=O)NC1C(=O)N2C(C(=O)O)=C(CSc3n[nH]c(=O)[nH]3)CSC12)c1ccccc1 (stereo not drawn)
50 µg/mL

Note, next up: CC1=C(C(=O)O)N2C(=O)[C@@H](NC(=O)[C@H](N)c3ccccc3)[C@H]2SC1 [S-II, cephalexin, reference compound]
50 µg/mL

Note, next up: CCn1c(SCC2=C(C(=O)O)N3C(=O)C(NC(=O)C(N)c4ccccc4)C3SC2)n[nH]c1=O (stereo not drawn)
25 µg/mL

Note, next up: Cn1c(SCC2=C(C(=O)O)N3C(=O)C(NC(=O)C(O)c4ccccc4)C3SC2)n[nH]c1=O (stereo not drawn)
25 µg/mL

Note, next up: O=C(Cc1cccs1)N[C@@H]1C(=O)N2C(C(=O)[O-])=C(C[n+]3ccccc3)CS[C@H]12 [S-I, cephaloridine, reference compound]
6.3 µg/mL

Note, next up: Cn1c(SCC2=C(C(=O)O)N3C(=O)C(NC(=O)C(N)c4ccccc4)C3SC2)n[nH]c1=O (stereo not drawn)
50 µg/mL

Note, next up: NC(C(=O)NC1C(=O)N2C(C(=O)O)=C(CSc3n[nH]c(=O)[nH]3)CSC12)c1ccc(O)cc1 (stereo not drawn)
100 µg/mL

Note, next up: O=C(O)C1=C(CSc2n[nH]c(=S)s2)CSC2C(NC(=O)C(O)c3ccccc3)C(=O)N12 (stereo not drawn)
25 µg/mL
